- TESTED SYSTEM: M-phase phosphoprotein 8 (Homo sapiens)
- PROTOCOL DESCRIPTION: qHTS Validation Assay for Inhibitors for MPP8 Chromodomain Interactions with Methylated Histone Tails (AID 488949);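 also: 50 nM MPP8 with 50 nM peptide preformed then compounds added for 30 min; AlphaScreen signal from MPP8 chromodomain bound to biotinylated H3K9me3 peptide; top concentration of the series differs between compounds; nearly all actives have a fitted effect of over 55% in size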
- STUDY CONDITIONS: AlphaScreen MPP8 binding to H3K9me3 peptide; series mostly up to 57.1 µM
Records with an inconclusive call do not appear. Active and inactive are the calls of the source. Calls follow the shape of the dose curve; as a rule, active = well fitted inhibition curve with a large enough effect; inconclusive = small, poorly fitted or top-dose-only effect; inactive = no such curve, though single readings can be large or run the other way.
// allowed return values: active, inactive

Past entries and their recorded results:
GET /call?item= `N[C@H](C(=O)O)c1cc(O)cc(O)c1` returns the recorded outcome of this test.
inactive

GET /call?item= CN1Cc2sccc2C(c2ccc(O)c(O)c2)C1 (stereo not given) returns the recorded outcome of this test.
inactive

GET /call?item= `N[C@@H](CCCC(=O)O)C(=O)O` returns the recorded outcome of this test.
inactive

GET /call?item= Cc1nc2n(c(=O)c1CCN1CCC(c3noc4cc(F)ccc34)CC1)CCCC2O (stereo not given) returns the recorded outcome of this test.
inactive

GET /call?item= `COc1ccccc1N1CCN(CCCCNC(=O)c2ccc3ccccc3c2)CC1` returns the recorded outcome of this test.
inactive

---
GET /call?item= `C[N+](C)(C)CC=O` returns the recorded outcome of this test.
inactive

GET /call?item= `CCCn1c(=O)c(C)cn2nc(N)nc12` returns the recorded outcome of this test.
inactive
